target: CFTR ΔF508 mutant (Homo sapiens, UniProt P13569, DEL508-508); construct: expressed in transfected cells; host or cells: CFBE41o- cells transduced with adenoviral vectors; test: YFP-halide influx assay for the CFTR-ΔF508 mutation; type: cell-based; settings: CFBE41o- cells expressing CFTR ΔF508 and YFP reporter; forskolin 10.67 μM
Sequence (P13569 with tags, fused parts or gaps DEL508-508): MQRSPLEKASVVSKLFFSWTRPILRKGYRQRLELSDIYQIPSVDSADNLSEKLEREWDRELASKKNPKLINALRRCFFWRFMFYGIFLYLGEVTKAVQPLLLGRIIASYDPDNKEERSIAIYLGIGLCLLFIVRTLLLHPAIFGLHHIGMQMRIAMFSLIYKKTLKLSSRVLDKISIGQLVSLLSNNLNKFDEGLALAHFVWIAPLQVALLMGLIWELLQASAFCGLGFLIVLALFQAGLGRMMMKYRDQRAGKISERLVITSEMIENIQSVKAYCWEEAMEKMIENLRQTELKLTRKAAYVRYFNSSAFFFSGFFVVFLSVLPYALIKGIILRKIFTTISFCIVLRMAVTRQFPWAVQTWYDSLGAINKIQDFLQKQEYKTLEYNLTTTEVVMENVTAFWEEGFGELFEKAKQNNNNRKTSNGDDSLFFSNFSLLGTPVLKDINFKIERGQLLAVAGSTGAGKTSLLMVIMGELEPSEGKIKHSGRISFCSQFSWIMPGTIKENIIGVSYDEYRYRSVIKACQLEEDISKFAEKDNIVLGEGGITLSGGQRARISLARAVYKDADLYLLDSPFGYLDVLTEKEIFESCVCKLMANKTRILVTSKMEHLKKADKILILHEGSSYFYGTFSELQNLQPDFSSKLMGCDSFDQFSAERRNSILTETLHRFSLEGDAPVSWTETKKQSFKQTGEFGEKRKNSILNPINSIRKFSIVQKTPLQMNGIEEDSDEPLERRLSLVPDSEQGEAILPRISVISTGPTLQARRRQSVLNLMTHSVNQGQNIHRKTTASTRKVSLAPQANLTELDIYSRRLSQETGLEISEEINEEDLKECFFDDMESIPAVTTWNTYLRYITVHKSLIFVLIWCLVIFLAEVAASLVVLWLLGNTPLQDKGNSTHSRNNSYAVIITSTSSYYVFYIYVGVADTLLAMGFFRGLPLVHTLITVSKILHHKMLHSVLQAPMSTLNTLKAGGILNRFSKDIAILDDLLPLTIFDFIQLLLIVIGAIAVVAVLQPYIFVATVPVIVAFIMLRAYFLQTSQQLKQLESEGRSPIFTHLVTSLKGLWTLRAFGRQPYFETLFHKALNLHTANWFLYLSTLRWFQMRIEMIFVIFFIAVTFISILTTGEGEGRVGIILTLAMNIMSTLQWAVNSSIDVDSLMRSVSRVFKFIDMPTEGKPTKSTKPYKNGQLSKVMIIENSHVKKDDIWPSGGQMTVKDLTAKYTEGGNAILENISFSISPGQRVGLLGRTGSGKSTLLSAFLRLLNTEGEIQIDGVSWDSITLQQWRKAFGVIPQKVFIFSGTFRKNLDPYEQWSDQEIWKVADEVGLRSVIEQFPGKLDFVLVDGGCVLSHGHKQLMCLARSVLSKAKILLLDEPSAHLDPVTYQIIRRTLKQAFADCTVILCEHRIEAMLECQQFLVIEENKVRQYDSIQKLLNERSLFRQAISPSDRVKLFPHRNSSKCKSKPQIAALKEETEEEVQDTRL
Catalogue of % Activation readings, one per entry.

# COMPOUND, TARGET SYSTEM, % Activation
data = [
    ("Nc1cc(S(=O)(=O)c2ccc(OC(F)(F)F)cc2)cnc1-c1nnc(COCC2CC2)s1", "CFTR ΔF508 mutant (Homo sapiens, UniProt P13569, DEL508-508)", "100.82%"),
    ("Nc1cc(S(=O)(=O)c2ccc(OC(F)(F)F)cc2)cnc1-c1nnc(C(O)C(F)(F)F)o1 (centres unmarked)", "CFTR ΔF508 mutant (Homo sapiens, UniProt P13569, DEL508-508)", "103.69%"),
    ("Nc1cc(S(=O)(=O)c2ccc(OC(F)(F)F)cc2)cnc1-c1nnc(C2CCCCC2)o1", "CFTR ΔF508 mutant (Homo sapiens, UniProt P13569, DEL508-508)", "106.5%"),
    ("CO[C@H](C)c1nnc(-c2ncc(S(=O)(=O)c3ccc(OC(F)(F)F)cc3)cc2N)o1", "CFTR ΔF508 mutant (Homo sapiens, UniProt P13569, DEL508-508)", "102.19%"),
    ("Nc1cc(S(=O)(=O)c2ccc(OC(F)(F)F)cc2)c(Br)nc1-c1nnc(CO)o1", "CFTR ΔF508 mutant (Homo sapiens, UniProt P13569, DEL508-508)", "109.95%"),
]

Q: For `Nc1cc(S(=O)(=O)c2ccc(OC(F)(F)F)cc2)cnc1-c1nnc(COC(F)(F)F)o1` , what is its reported % Activation?
Result: 113.65%

Q: For COC(C)c1noc(-c2ncc(S(=O)(=O)c3ccc(OC(F)(F)F)cc3)cc2N)n1 (centres unmarked) , what is its reported % Activation?
Result: 59.4%

Q: For `Nc1cc(S(=O)(=O)c2ccc(OC(F)(F)F)cc2)cnc1-c1nnc(C[C@H]2CCCO2)s1` , what is its reported % Activation?
Result: 105.02%
